pKi: −log10 of the molar value. Starred links: 1 amine or outer side, 2 acyl side, 3 side chain; linkers in the order of their positions; H or OH if unused. Non-standard residues stand in square brackets, D forms with d. Residues, ends and D or L forms follow the SMILES beside them. *: point of attachment. Hyp = O=C(O)[C@@H]1C[C@@H](O)CN1; X2 = CCCC(N[*:1])C(=O)C(=O)[*:2]; Phg = N[C@H](C(=O)O)c1ccccc1; Tle = CC(C)(C)[C@H](N)C(=O)O; CO = O=C([*:1])[*:2]; X1 = CC1(N*)CCCCC1; tBu = CC(C)(C)*
Reported values: pKi for Human Liver Cathepsin L (Homo sapiens), one per item.
measurement-name: pKi

Below are worked cases with known answers.
compound: CCCC(NC(=O)[C@@H]1C[C@@H](OC(C)(C)C)CN1C(=O)[C@@H](NC(=O)NC1(C)CCCCC1)C(C)(C)C)C(=O)C(=O)NCC(=O)N[C@H](C(=O)N(C)C)c1ccccc1 (some centres unmarked) ({X1-CO}-[Tle][Hyp](tBu)[X2]G[Phg]-NMe2)
measured-number: 6.77

compound: CC(C)(C)[C@H](NC(=O)NC1(CS(=O)(=O)C(C)(C)C)CCCCC1)C(=O)N1C[C@H]2[C@@H]([C@H]1C(=O)N[C@@H](CCC1CC1)C(=O)C(=O)NC1CC1)C2(C)C [drawing 671]
measured-number: 7.33

A = CC(=O)N[C@@H](CC(C)C)C(=O)N[C@@H](CC(C)C)C(=O)N[C@H](C=O)CCCNC(=N)N [drawing 710]
B = C=CCNC(=O)C(=O)[C@H](CCCC)NC(=O)[C@@H]1[C@@H]2[C@H](CN1C(=O)[C@@H](NC(=O)NC1([C@H]3CCCS3(=O)=O)CCCCC1)C(C)(C)C)C2(C)C [drawing 672]
Would you kindly point out which of A and B has the smaller pKi figure? Write down the label of the entry you select.
B
(B: 7.31, A: 8.32)

* * *

Reported values: Ki for Human Liver Cathepsin L (Homo sapiens, UniProt P07711), one per item.
measurement-name: Ki (nM)

compound: CCCC[C@H](NC(=O)[C@@H]1[C@@H]2[C@H](CN1C(=O)[C@@H](NC(=O)NC1(CS(=O)(=O)C(C)(C)C)CCCCC1)C(C)(C)C)C2(C)C)C(=O)C(=O)NC1CC1 [drawing 667]
quantity-unit: nM
Ki: 40

compound: CCCC[C@H](NC(=O)[C@@H]1[C@@H]2[C@H](CN1C(=O)[C@@H](NC(=O)NC1(CS(=O)(=O)C(C)(C)C)CCCCC1)C(C)(C)C)C2(C)C)C(=O)C(=O)NC1CC1 [drawing 652]
quantity-unit: nM
Ki: 7

compound: CN(C)C(=O)c1nc(CNC(=O)C(=O)C(CC2CCC2)NC(=O)[C@@H]2[C@@H]3[C@H](CN2C(=O)[C@@H](NC(=O)NC(C)(C)C)C(C)(C)C)C3(C)C)sc1-c1ccccc1 (some centres unmarked)
quantity-unit: nM
Ki: 190

P = CC(C)(C)OC(=O)N[C@H](C(=O)N1CC2CCCC2[C@H]1C(=O)NC(CC1CC1)C(=O)C(N)=O)C1CCCCC1 (some centres unmarked)
Q = CC1([C@H](NC(=O)NC2(C3CCCS3(=O)=O)CCCCC2)C(=O)N2C[C@H]3[C@@H]([C@H]2C(=O)N[C@@H](CCC2CC2)C(=O)C(=O)NC2CC2)C3(C)C)CCCCC1 (some centres unmarked)
Sort P and Q by Ki descending and give the first. Write down the label of the entry you select.
Q
